target: BRG-1 (Homo sapiens); construct: made in house; host or cells: High Five insect cells; test: ATPase catalytic activity of BRG-1, ADP-Glo in vitro biochemical assay; details: ADP-Glo ATPase assay, 30 nM BRG-1, 400 μM ATP; read-out: BRG1 IC50
Sequence (P51532 whole entry): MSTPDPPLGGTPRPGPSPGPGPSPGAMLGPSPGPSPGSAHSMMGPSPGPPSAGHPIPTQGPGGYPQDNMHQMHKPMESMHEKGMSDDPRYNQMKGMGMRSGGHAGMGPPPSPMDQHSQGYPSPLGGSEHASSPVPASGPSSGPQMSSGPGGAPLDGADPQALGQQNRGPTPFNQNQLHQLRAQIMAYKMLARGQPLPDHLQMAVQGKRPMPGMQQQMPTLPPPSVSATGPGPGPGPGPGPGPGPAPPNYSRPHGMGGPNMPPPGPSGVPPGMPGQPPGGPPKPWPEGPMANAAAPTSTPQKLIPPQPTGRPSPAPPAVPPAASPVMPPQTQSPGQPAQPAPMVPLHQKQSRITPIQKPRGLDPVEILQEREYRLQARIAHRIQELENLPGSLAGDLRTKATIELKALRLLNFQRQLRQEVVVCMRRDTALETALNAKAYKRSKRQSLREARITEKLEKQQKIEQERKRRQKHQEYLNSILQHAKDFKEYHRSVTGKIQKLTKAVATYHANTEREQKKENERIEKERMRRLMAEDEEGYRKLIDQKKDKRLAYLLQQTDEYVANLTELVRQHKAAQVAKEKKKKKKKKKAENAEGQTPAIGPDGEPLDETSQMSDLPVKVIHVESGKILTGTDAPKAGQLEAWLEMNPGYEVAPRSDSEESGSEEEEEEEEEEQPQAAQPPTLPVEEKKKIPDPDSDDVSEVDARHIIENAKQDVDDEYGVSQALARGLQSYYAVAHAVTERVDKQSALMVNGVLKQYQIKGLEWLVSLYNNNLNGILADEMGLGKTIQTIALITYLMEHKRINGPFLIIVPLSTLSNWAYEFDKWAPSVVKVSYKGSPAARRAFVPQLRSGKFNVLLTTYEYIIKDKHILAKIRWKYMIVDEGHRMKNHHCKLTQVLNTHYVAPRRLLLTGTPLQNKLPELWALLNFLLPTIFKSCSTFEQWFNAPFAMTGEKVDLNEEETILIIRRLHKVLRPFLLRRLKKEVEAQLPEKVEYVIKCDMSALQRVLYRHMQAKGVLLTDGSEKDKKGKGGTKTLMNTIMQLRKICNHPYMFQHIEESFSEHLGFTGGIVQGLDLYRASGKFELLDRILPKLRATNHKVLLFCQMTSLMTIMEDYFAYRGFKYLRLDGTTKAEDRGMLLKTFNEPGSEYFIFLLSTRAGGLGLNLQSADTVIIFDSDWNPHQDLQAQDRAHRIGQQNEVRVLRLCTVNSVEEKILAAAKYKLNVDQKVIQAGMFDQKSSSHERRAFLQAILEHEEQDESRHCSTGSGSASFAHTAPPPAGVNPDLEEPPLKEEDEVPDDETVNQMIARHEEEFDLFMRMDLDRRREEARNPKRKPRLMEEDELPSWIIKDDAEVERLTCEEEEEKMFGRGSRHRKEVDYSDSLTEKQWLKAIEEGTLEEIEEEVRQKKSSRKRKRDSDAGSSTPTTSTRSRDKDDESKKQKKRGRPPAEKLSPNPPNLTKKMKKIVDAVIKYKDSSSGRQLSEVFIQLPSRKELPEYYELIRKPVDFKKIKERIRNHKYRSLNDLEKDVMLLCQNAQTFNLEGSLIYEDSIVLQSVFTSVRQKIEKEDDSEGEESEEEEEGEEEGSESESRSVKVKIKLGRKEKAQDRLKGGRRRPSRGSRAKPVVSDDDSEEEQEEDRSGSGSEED
Exam item: assign Criterion met to entries whose IC50 is below 1000 nM and Criterion not met to entries at or above 1000 nM. Note that a value of exactly 1000 nM receives Criterion not met.

O=C(NCc1cc2nc(-c3cncc(C4CC4)n3)ccc2cn1)c1cc(F)c2c(c1)S(=O)(=O)CCOC2	Criterion met

(Q) IC50 strictly < 1000 nM for this compound? O=C(NCc1cc2nc(-c3cccc(OC(F)F)c3)ccc2cn1)c1ccc2c(c1)S(=O)(=O)CCOC2
(A) Criterion not met

(Q) # TODO verify IC50 < 1000 nM strictly for this compound: Cn1ccc(-c2cccc(-c3ccc4cnc(CNC(=O)c5ccc6c(c5)S(=O)(=O)CCOC6)cc4n3)c2)n1
(A) Criterion met

(Q) Would you kindly verify if IC50 of O=C(NCc1cc2nc(N3CCCc4ncc(C5CC5)nc43)ccc2cn1)c1ccc2c(c1)S(=O)(=O)CCOC2 is strictly less than 1000 nM?
(A) Criterion not met

(Q) API: query returns whether the compound falls strictly under 1000 nM in IC50. Query: O=C(NCc1cc2nc(-c3cccc(CC(F)F)n3)ccc2cn1)c1ccc2c(c1)S(=O)(=O)CCOC2
(A) Criterion not met

(Q) Please state whether IC50 is below 1000 nM for C[C@@]1(c2cccc(-c3ccc4cnc(CNC(=O)c5ccc6c(c5)S(=O)(=O)CCOC6)cc4n3)n2)CC1(F)F
(A) Criterion not met

(Q) Lab note: IC50 threshold 1000 nM. Does this compound come in strictly under it? COCCN1CCOc2c(-c3ccc4cnc(CNC(=O)c5ccc(C(F)F)c(S(C)(=O)=O)c5)cc4n3)cccc21
(A) Criterion met

(Q) Hello, is IC50 of the following compound strictly smaller than 1000 nM? Cc1ncnc2c1CCCN2c1ccc2cnc(CNC(=O)c3ccc4c(c3)S(=O)(=O)CCOC4)cc2n1
(A) Criterion not met

(Q) Consider the compound COCCS(=O)(=O)c1cc(C(=O)NCc2cc3nc(-c4cncc(C5CC5)n4)ccc3cn2)ccc1Cl . Is its IC50 strictly less than 1000 nM?
(A) Criterion not met

(Q) Identify whether the compound CC1COCc2ccc(C(=O)NCc3cc4nc(-c5cccc(N6CCC6)n5)ccc4cn3)cc2S1(=O)=O (single isomer, unassigned) [Compound 197] records IC50 below 1000 nM.
(A) Criterion met

(Q) Determine whether this compound shows IC50 lower than 1000 nM (ties excluded): CC(F)(F)c1cccc(-c2ccc3cnc(CNC(=O)c4ccc5c(c4)S(=O)(=O)CCOC5)cc3n2)n1
(A) Criterion not met

====

target: BRM (Homo sapiens); construct: made in house; host or cells: High Five insect cells; assay: ATPase catalytic activity of BRM, ADP-Glo in vitro biochemical assay; settings: ATPase catalytic activity, ADP-Glo; 30 nM BRM, 400 μM ATP
Recorded measurements of pIC50, one per entry
As a rule, pIC50 stands for the negative log10 of the concentration, concentration in M.

C[C@@H]1CN(c2cccc(-c3ccc4cnc(CNC(=O)c5ccc6c(c5)S(=O)(=O)[C@H](C)C6)cc4n3)n2)C[C@H](C)O1	8.10

Next molecule, please.
// pIC50 (BRM (Homo sapiens)) for N#Cc1ccc2c(c1)CCCN2c1ccc2cnc(CNC(=O)c3ccc4c(c3)S(=O)(=O)CCOC4)cc2n1 = 7.68

====

target: BRG-1 (Homo sapiens); construct: made in house; host or cells: High Five insect cells; experiment: ATPase catalytic activity of BRG-1, ADP-Glo in vitro biochemical assay; conditions: ADP-Glo ATPase assay, 30 nM BRG-1, 400 μM ATP; read-out: BRG1 IC50
Mark Fulfilled only for IC50 values smaller than 80 nM; exact matches and larger values are Not fulfilled.

Please review the following examples before continuing.
COc1ccccc1-c1ccc2cnc(CNC(=O)c3ccc4c(c3)S(=O)(=O)CCOC4)cc2n1 [Compound 254]	Not fulfilled
O=C(NCc1cc2nc(-c3cccc(C4CCOCC4)n3)ccc2cn1)c1ccc2c(c1)S(=O)(=O)CCOC2 [Compound 133]	Not fulfilled
CCN(CC)c1cccc(-c2ccc3cnc(CNC(=O)c4cc(F)c5c(c4)S(=O)(=O)CCOC5)cc3n2)n1 [Compound 62]	Not fulfilled
C[C@@H]1CN(c2cccc(-c3ccc4nnc(CNC(=O)c5ccc6c(c5)S(=O)(=O)CCOC6)cc4c3)n2)C[C@H](C)O1 [Compound 160]	Fulfilled
C[C@@H]1CN(c2cccc(-c3ccc4cnc([C@H](C)NC(=O)c5ccc6c(c5)S(=O)(=O)CCOC6)cc4n3)n2)C[C@H](C)O1 [Compound 122]	Fulfilled

Note: attention shifts to another entry.
(Q) Strictly below 80 nM: is that where IC50 of CN(C)c1cccc(-c2ccc3cnc(CNC(=O)c4ccc5c(c4)S(=O)(=O)CCOC5)cc3n2)n1 [Compound 303] sits?
(A) Not fulfilled

====

Biological target: BRM (Homo sapiens)
Construct: made in house; host or cells: High Five insect cells
Assay: ATPase catalytic activity of BRM, ADP-Glo in vitro biochemical assay
Settings: ratio of BRG1 IC50 to BRM IC50
Description: The ATPase catalytic activity of BRM or BRG-1 was measured by an in vitro biochemical assay using ADP-Glo™ (Promega, V9102). The ADP-Glo™ kinase assay is performed in two steps once the reaction is complete. The first step is to deplete any unconsumed ATP in the reaction. The second step is to convert the reaction product ADP to ATP, which will be utilized by the luciferase to generate luminesce and be detected by a luminescence reader, such as Envision. […]
List of Ratio* values.

Known results for molecules:
O=C(NCc1cc2nc(N3CCOc4cc(Cl)c(C5CC5)nc43)ccc2cn1)c1ccc2c(c1)S(=O)(=O)CCOC2	24.47
CC[C@H]1COCc2ccc(C(=O)NCc3cc4nc(-c5cccc(N6C[C@@H](C)O[C@@H](C)C6)n5)ccc4cn3)cc2S1(=O)=O	5.14
CN1C(=O)CN(c2ccc3cnc(CNC(=O)c4ccc5c(c4)S(=O)(=O)CCOC5)cc3n2)c2ccccc21	2.54
C[C@@H]1CN(c2cccc(-c3ccc4cnc(CNC(=O)c5cc(Cl)c6c(c5)S(=O)(=O)CCO[C@@H]6C)cc4n3)n2)C[C@H](C)O1	22.48
Cc1cnc2c(c1)OCCN2c1ccc2cnc(CNC(=O)c3cc(Cl)c4c(c3)S(=O)(=O)CCOC4)cc2n1	19.48

Consider CO[C@@H]1CN(c2cccc(-c3ccc4cnc(CNC(=O)c5ccc6c(c5)S(=O)(=O)CCOC6)cc4n3)n2)C[C@@H]1F . Its measured Ratio* is 13.29

Measured Ratio* of CCN(C[C@H](C)OC)c1cccc(-c2ccc3cnc(CNC(=O)c4ccc5c(c4)S(=O)(=O)CCOC5)cc3n2)n1 : 16.77

====

target: BRM (Homo sapiens); construct: made in house; host or cells: High Five insect cells; assay: ATPase catalytic activity of BRM, ADP-Glo in vitro biochemical assay; conditions: ratio of BRG1 IC50 to BRM IC50
Binary classification by Ratio*, with 10 as an inclusive lower bound for Yes; all other cases are No.

Example cases with answers are listed next.
O=C(NCc1cc2nc(N3CCc4nccnc4C3)ccc2cn1)c1ccc2c(c1)S(=O)(=O)CCOC2	No
COc1cc(C(F)F)ccc1-c1ccc2cnc(CNC(=O)c3ccc4c(c3)S(=O)(=O)[C@@H](C)COC4)cc2n1	Yes
C[C@@H]1CN(c2cccc(-c3ccc4cnc(CNC(=O)c5ccc6c(c5)S(=O)(=O)[C@@H](C)COC6)cc4n3)c2F)C[C@H](C)O1	Yes

(Q) hey, is Ratio* for this one >= 10? CC1Cc2ccc(C(=O)NCc3cc4nc(-c5cccc(N6C[C@@H](C)O[C@@H](C)C6)n5)ccc4cn3)cc2S1(=O)=O (stereo partly drawn)
(A) Yes

(Q) Check if Ratio* >= 10 (inclusive). Item: COC1CCS(=O)(=O)c2cc(C(=O)NCc3cc4nc(-c5cccc(N6C[C@@H](C)O[C@@H](C)C6)n5)ccc4cn3)ccc2C1 (stereo partly drawn)
(A) No

(Q) Is Ratio* for O=C(NCc1cc2nc(N3CCN(C4CC4)c4cccnc43)ccc2cn1)c1ccc2c(c1)S(=O)(=O)CCOC2 at or above 10?
(A) Yes

====

target: BRM (Homo sapiens, UniProt P51531); construct: made in house; host or cells: High Five insect cells; assay: ATPase catalytic activity of BRM, ADP-Glo in vitro biochemical assay; conditions: selectivity ratio BRG1 IC50 / BRM IC50
Sequence (P51531 whole entry): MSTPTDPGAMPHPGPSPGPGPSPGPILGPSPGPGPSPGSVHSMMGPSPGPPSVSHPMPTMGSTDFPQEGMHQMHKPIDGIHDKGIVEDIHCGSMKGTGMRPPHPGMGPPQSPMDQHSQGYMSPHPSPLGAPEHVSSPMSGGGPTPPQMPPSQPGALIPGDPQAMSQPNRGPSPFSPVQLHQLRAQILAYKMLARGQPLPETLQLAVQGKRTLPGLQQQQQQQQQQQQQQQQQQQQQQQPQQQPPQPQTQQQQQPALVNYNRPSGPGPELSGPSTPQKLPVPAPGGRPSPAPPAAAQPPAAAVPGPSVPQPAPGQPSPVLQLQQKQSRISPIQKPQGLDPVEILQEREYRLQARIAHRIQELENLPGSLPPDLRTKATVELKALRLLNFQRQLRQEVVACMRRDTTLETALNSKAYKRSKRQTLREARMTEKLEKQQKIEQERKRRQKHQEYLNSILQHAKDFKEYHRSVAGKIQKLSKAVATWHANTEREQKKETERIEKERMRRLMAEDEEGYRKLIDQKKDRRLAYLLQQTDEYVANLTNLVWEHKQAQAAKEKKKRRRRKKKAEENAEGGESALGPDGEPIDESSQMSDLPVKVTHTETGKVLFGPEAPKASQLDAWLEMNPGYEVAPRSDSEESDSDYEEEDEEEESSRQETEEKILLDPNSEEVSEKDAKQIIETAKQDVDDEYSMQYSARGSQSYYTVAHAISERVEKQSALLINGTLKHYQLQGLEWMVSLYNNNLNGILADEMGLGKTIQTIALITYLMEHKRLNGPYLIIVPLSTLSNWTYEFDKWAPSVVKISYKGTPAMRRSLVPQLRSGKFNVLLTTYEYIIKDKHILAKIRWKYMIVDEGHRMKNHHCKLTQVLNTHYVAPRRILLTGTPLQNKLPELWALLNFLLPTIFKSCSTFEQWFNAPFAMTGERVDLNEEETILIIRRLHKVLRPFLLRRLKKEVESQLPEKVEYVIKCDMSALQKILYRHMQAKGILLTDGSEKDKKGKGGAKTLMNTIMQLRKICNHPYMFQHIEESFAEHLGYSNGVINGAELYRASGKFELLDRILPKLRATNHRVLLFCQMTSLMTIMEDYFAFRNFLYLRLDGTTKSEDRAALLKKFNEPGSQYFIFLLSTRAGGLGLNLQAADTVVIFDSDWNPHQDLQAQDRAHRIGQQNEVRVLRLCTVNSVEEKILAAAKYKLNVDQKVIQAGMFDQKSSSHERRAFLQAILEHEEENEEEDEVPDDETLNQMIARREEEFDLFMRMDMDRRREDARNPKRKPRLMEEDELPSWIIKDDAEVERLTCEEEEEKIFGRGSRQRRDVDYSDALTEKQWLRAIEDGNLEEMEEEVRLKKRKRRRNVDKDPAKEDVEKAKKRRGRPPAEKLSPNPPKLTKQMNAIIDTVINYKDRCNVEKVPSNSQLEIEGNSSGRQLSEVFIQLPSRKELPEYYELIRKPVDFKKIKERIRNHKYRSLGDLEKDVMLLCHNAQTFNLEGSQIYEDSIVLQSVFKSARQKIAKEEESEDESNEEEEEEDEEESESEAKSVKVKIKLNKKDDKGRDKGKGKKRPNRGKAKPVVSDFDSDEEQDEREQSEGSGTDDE
Response key: Fulfilled means Ratio* (BRG1 IC50 (μM) divided by BRM IC50 (μM)) >= 10; Not fulfilled means Ratio* (BRG1 IC50 (μM) divided by BRM IC50 (μM)) < 10.

(Q) Entry C[C@H]1CN(c2cccc(-c3ccc4cnc(CNC(=O)c5ccc(C(F)F)c(S(C)(=O)=O)c5)cc4n3)n2)C[C@H](C)O1 : is its Ratio* (BRG1 IC50 (μM) divided by BRM IC50 (μM)) no less than 10?
(A) Fulfilled

(Q) Does the compound C[C@H]1CN(c2cccc(-c3ccc4cnc(CNC(=O)c5ccc6c(c5)S(=O)(=O)CCOC6)cc4n3)n2)CCO1 have recorded Ratio* (BRG1 IC50 (μM) divided by BRM IC50 (μM)) that is 10 or more?
(A) Not fulfilled

(Q) Ratio* (BRG1 IC50 (μM) divided by BRM IC50 (μM)) >= 10 for CS(=O)(=O)c1cc(C(=O)NCc2cc3nc(-c4cncc(C5CC5)n4)ccc3cn2)cc(F)c1Cl ?
(A) Fulfilled

(Q) Determine whether this compound has Ratio* (BRG1 IC50 (μM) divided by BRM IC50 (μM)) no lower than 10: C[C@@H]1CN(c2cccc(-c3cnc4cnc(CNC(=O)c5ccc6c(c5)S(=O)(=O)CCOC6)cc4n3)c2)C[C@H](C)O1
(A) Fulfilled

(Q) Entry CC1CS(=O)(=O)c2cc(C(=O)NCc3cc4nc(-c5cccc(N6C[C@@H](C)O[C@@H](C)C6)n5)ccc4cn3)ccc2CO1 (stereo partly shown) : is its Ratio* (BRG1 IC50 (μM) divided by BRM IC50 (μM)) no less than 10?
(A) Not fulfilled

(Q) Tell me whether Ratio* (BRG1 IC50 (μM) divided by BRM IC50 (μM)) is at least 10 here: O=C(NCc1cc2nc(-c3cccc4c3CCCN4CC(F)F)ccc2cn1)c1ccc2c(c1)S(=O)(=O)CCOC2
(A) Not fulfilled

(Q) Quick check, Ratio* (BRG1 IC50 (μM) divided by BRM IC50 (μM)) >= 10? CN(C)c1cccc(-c2ccc3cnc(CNC(=O)c4cc(F)c5c(c4)S(=O)(=O)CCOC5)cc3n2)n1
(A) Fulfilled
